These entries and their values trace back to ChEMBL document CHEMBL1152488.

# MEASURED_ON: Nitric oxide synthase, inducible (Mus musculus) (UniProt P29477)
# Sequence (whole entry): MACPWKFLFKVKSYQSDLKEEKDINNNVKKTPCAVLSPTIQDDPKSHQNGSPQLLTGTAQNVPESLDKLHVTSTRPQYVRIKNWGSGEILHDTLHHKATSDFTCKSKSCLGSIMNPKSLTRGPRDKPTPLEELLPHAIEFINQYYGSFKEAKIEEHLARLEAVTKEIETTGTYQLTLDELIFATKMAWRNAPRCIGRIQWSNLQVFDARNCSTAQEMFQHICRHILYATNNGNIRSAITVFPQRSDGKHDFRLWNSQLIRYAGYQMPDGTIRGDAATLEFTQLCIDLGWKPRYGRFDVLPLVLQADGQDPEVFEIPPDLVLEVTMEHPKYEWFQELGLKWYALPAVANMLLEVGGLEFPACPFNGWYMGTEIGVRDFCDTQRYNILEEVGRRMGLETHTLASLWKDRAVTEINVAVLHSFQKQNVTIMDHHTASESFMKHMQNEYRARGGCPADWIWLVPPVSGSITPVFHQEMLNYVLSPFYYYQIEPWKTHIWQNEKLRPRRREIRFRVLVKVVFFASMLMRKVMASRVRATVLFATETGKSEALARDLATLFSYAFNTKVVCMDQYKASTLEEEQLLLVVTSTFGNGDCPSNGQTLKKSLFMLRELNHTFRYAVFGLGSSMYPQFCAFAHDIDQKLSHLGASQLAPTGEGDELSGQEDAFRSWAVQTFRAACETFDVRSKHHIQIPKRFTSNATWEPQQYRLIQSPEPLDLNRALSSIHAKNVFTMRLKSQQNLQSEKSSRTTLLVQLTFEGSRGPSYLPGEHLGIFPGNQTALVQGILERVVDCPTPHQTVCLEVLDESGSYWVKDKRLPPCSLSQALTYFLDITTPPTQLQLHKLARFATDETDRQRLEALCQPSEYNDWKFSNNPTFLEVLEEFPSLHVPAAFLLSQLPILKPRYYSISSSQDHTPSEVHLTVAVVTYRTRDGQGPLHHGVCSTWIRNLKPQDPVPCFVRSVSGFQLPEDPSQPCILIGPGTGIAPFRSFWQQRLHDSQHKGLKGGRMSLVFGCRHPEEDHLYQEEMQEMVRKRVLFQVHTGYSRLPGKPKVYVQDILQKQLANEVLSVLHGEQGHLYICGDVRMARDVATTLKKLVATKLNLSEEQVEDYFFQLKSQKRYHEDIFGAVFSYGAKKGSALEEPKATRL
# TEST_DETAILS: Inhibition of mouse recombinant iNOS expressed in Escherichia coli assessed as NADPH consumption at 100 uM after 2 mins by spectrophotometry
REPORTED_METRIC: Remaining NADPH oxidation rate (% of DMSO control) (%)

- COMPOUND: "CC1=CC2=NCC(C(=O)c3ccc4cc(C)ccc4c3)CN2C=C1.[O-][Cl+3]([O-])([O-])O (configuration not stated)"
  MEASURED_ON: "Nitric oxide synthase, inducible (Mus musculus) (UniProt P29477)"
  RECORDED_MEASUREMENT: 70
- COMPOUND: "CC1=CC2=NCC(C(=O)c3ccc(-c4ccc(Br)cc4)cc3)CN2C(C)=C1 (configuration not stated)"
  MEASURED_ON: "Nitric oxide synthase, inducible (Mus musculus) (UniProt P29477)"
  RECORDED_MEASUREMENT: 72
- COMPOUND: "Cc1ccc(C(=O)C2CN=C3C=CC=CN3C2)cc1.[O-][Cl+3]([O-])([O-])O (configuration not stated)"
  MEASURED_ON: "Nitric oxide synthase, inducible (Mus musculus) (UniProt P29477)"
  RECORDED_MEASUREMENT: 91
- COMPOUND: "CC1=CC2=NCC(C(=O)c3ccc(OCc4ccc(Cl)cc4)cc3)CN2C=C1.[O-][Cl+3]([O-])([O-])O (configuration not stated)"
  MEASURED_ON: "Nitric oxide synthase, inducible (Mus musculus) (UniProt P29477)"
  RECORDED_MEASUREMENT: 64
- COMPOUND: "CC1=CC2=NCC(C(=O)c3ccc(-c4ccc(Br)cc4)cc3)CN2C=C1.[O-][Cl+3]([O-])([O-])O (configuration not stated)"
  MEASURED_ON: "Nitric oxide synthase, inducible (Mus musculus) (UniProt P29477)"
  RECORDED_MEASUREMENT: 64
- COMPOUND: "O=C(c1ccc(Cl)c(Cl)c1)C1CN=C2C=CC=CN2C1.[O-][Cl+3]([O-])([O-])O (configuration not stated)"
  MEASURED_ON: "Nitric oxide synthase, inducible (Mus musculus) (UniProt P29477)"
  RECORDED_MEASUREMENT: 100
- COMPOUND: "COc1ccc(-c2ccc(C(=O)C3CN=C4C=C(C)C=CN4C3)cc2)cc1.Cl (configuration not stated)"
  MEASURED_ON: "Nitric oxide synthase, inducible (Mus musculus) (UniProt P29477)"
  RECORDED_MEASUREMENT: 40
- COMPOUND: "COc1ccc(C(=O)C2CN=C3C(C)=CC=CN3C2)cc1OC (configuration not stated)"
  MEASURED_ON: "Nitric oxide synthase, inducible (Mus musculus) (UniProt P29477)"
  RECORDED_MEASUREMENT: 89
- COMPOUND: "CC1=CC=CC2=NCC(C(=O)c3ccc(C)cc3)CN12.[O-][Cl+3]([O-])([O-])O (configuration not stated)"
  MEASURED_ON: "Nitric oxide synthase, inducible (Mus musculus) (UniProt P29477)"
  RECORDED_MEASUREMENT: 94
- COMPOUND: "CC1=CC=CC2=NCC(C(=O)c3ccc(F)cc3)CN12.[O-][Cl+3]([O-])([O-])O (configuration not stated)"
  MEASURED_ON: "Nitric oxide synthase, inducible (Mus musculus) (UniProt P29477)"
  RECORDED_MEASUREMENT: 87
- COMPOUND: "CC1=CC2=NCC(C(=O)c3ccc4cc(C)ccc4c3)CN2C(C)=C1.[O-][Cl+3]([O-])([O-])O (configuration not stated)"
  MEASURED_ON: "Nitric oxide synthase, inducible (Mus musculus) (UniProt P29477)"
  RECORDED_MEASUREMENT: 72
- COMPOUND: "COc1ccc(C(=O)C2CN=C3C=CC=C(C)N3C2)cc1OC.[O-][Cl+3]([O-])([O-])O (configuration not stated)"
  MEASURED_ON: "Nitric oxide synthase, inducible (Mus musculus) (UniProt P29477)"
  RECORDED_MEASUREMENT: 92
